assay: Log P measurement; type: physicochemical
RESULT TYPE: logP

>>> value_reported("COc1cc(N2CCC(N3CCN(CC4CN(c5ccc6c(c5)C(=O)N(C5CCC(=O)NC5=O)C6=O)C4)CC3)CC2)ccc1Nc1ncc(Cl)c(Nc2ccccc2P(C)(C)=O)n1 (centres unmarked)")
2.5
>>> value_reported("COc1cc(N2CCC(N3CCN(CC4CCN(c5ccc6c(c5)CN(C5CCC(=O)NC5=O)C6=O)CC4)CC3)CC2)ccc1Nc1ncc(Cl)c(Nc2ccccc2P(C)(C)=O)n1 (centres unmarked)")
2.54
>>> value_reported("COc1cc(N2CCC(N3CCN(CC4CCN(c5ccc6c(c5)C(=O)N(C5CCC(=O)NC5=O)C6=O)CC4)CC3)CC2)ccc1Nc1ncc(Cl)c(Nc2ccccc2P(C)(C)=O)n1 (centres unmarked)")
2.88
>>> value_reported("COc1cc(N2CCN(CC3CCN(c4ccc5c(c4)C(=O)N(C4CCC(=O)NC4=O)C5=O)CC3)CC2)ccc1Nc1ncc(Cl)c(Nc2ccccc2P(C)(C)=O)n1 (centres unmarked)")
2.35
>>> value_reported("COc1cc(N2CCN(CC3CN(c4ccc5c(c4)CN(C4CCC(=O)NC4=O)C5=O)C3)CC2)ccc1Nc1ncc(Cl)c(Nc2ccccc2P(C)(C)=O)n1 (centres unmarked)")
3.07

---

test system: Ba/F3 CD74-ROS1 non mutant; test: Antiproliferation assay (Alamar Blue, 72 h); type: cell-based, mouse; settings: Mus musculus, BaF3, 72 h, Ba/F3 cells, cell growth inhibition
RESULT TYPE: IC50 (nM)

Consider the reported IC50 for these compounds:
>>> value_reported("COc1cc(N2CCC(N3CCN(CC4CN(c5ccc6c(c5)C(=O)N(C5CCC(=O)NC5=O)C6=O)C4)CC3)CC2)ccc1Nc1ncc(Cl)c(Nc2ccccc2P(C)(C)=O)n1 (centres unmarked)")
3.8
>>> value_reported("COc1cc(N2CCN(CC3CCN(c4ccc5c(c4)C(=O)N(C4CCC(=O)NC4=O)C5=O)CC3)CC2)ccc1Nc1ncc(Cl)c(Nc2ccccc2P(C)(C)=O)n1 (centres unmarked)")
19
>>> value_reported("Cc1cc(Nc2ncc(Cl)c(Nc3ccccc3S(=O)(=O)C(C)C)n2)c(OC(C)C)cc1C1CCN(C2CCN(CCNc3ccc4c(c3)C(=O)N(C3CCC(=O)NC3=O)C4=O)CC2)CC1 (centres unmarked)")
171
>>> value_reported("Cc1cc(Nc2ncc(Cl)c(Nc3ccccc3S(=O)(=O)C(C)C)n2)c(OC(C)C)cc1C1CCN(CCNc2cccc3c2C(=O)N(C2CCC(=O)NC2=O)C3=O)CC1 (centres unmarked)")
176
>>> value_reported("COc1cc(N2CCC(N3CCN(CC4CN(c5ccc6c(c5)CN(C5CCC(=O)NC5=O)C6=O)C4)CC3)CC2)ccc1Nc1ncc(Cl)c(Nc2ccccc2P(C)(C)=O)n1 (centres unmarked)")
15.3

1 = COc1cc(N2CCC(N3CCN(CC4CCN(c5ccc6c(c5)C(=O)N(C5CCC(=O)NC5=O)C6=O)CC4)CC3)CC2)ccc1Nc1ncc(Cl)c(Nc2ccccc2P(C)(C)=O)n1 (centres unmarked)
2 = C[C@@H](Oc1cc(-c2cnn(C3CCN(c4ccc5c(c4)C(=O)N(C4CCC(=O)NC4=O)C5=O)CC3)c2)cnc1N)c1c(Cl)ccc(F)c1Cl (some centres unmarked)
3 = C[C@@H](Oc1cc(-c2cnn(C3CCN(CCC4CCN(c5cccc6c5C(=O)N(C5CCC(=O)NC5=O)C6=O)CC4)CC3)c2)cnc1N)c1c(Cl)ccc(F)c1Cl (some centres unmarked)
4 = Cc1cc(Nc2ncc(Cl)c(Nc3ccccc3S(=O)(=O)C(C)C)n2)c(OC(C)C)cc1C1CCN(C2CCN(CC3CN(c4ccc5c(c4)C(=O)N(C4CCC(=O)NC4=O)C5=O)C3)CC2)CC1 (centres unmarked)
5 = Cc1cc(Nc2ncc(Cl)c(Nc3ccccc3S(=O)(=O)C(C)C)n2)c(OC(C)C)cc1C1CCN(C2CCN(c3ccc4c(c3)C(=O)N(C3CCC(=O)NC3=O)C4=O)CC2)CC1 (centres unmarked)
Highest IC50 first, then in falling order down to the smallest. Write out the labels following the order that was asked for.
4, 2, 3, 5, 1
(4: 713 nM, 2: 155 nM, 3: 106 nM, 5: 39 nM, 1: 11.2 nM)

---

target: ROS1 (Homo sapiens)
Sequence (P08922 1883-2347 limits assumed): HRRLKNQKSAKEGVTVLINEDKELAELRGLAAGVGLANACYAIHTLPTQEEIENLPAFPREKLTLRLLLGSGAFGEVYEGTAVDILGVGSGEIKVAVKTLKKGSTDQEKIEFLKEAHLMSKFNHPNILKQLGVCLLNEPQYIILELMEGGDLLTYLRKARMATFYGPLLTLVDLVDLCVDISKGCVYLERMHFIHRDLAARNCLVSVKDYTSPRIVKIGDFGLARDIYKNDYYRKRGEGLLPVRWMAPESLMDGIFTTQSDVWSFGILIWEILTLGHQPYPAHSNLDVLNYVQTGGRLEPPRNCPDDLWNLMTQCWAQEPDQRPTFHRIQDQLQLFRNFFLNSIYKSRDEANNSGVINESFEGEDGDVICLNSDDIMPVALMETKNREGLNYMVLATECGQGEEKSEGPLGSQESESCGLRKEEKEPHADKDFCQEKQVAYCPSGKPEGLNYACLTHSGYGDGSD
RESULT TYPE: pIC50
Reminder that pIC50 means the negative base-10 logarithm of the concentration expressed in mol/L.

pIC50 of COc1cc(N2CCC(N3CCN(CC4CCN(c5ccc6c(c5)CN(C5CCC(=O)NC5=O)C6=O)CC4)CC3)CC2)ccc1Nc1ncc(Cl)c(Nc2ccccc2P(C)(C)=O)n1 (stereo not shown) , assay on ROS1 (Homo sapiens), is 9.10

---

molecular target: ERBB4/HER4 (Homo sapiens); experiment: Kinase assay; details: average of duplicate measurements
Sequence (Q15303 26-1308): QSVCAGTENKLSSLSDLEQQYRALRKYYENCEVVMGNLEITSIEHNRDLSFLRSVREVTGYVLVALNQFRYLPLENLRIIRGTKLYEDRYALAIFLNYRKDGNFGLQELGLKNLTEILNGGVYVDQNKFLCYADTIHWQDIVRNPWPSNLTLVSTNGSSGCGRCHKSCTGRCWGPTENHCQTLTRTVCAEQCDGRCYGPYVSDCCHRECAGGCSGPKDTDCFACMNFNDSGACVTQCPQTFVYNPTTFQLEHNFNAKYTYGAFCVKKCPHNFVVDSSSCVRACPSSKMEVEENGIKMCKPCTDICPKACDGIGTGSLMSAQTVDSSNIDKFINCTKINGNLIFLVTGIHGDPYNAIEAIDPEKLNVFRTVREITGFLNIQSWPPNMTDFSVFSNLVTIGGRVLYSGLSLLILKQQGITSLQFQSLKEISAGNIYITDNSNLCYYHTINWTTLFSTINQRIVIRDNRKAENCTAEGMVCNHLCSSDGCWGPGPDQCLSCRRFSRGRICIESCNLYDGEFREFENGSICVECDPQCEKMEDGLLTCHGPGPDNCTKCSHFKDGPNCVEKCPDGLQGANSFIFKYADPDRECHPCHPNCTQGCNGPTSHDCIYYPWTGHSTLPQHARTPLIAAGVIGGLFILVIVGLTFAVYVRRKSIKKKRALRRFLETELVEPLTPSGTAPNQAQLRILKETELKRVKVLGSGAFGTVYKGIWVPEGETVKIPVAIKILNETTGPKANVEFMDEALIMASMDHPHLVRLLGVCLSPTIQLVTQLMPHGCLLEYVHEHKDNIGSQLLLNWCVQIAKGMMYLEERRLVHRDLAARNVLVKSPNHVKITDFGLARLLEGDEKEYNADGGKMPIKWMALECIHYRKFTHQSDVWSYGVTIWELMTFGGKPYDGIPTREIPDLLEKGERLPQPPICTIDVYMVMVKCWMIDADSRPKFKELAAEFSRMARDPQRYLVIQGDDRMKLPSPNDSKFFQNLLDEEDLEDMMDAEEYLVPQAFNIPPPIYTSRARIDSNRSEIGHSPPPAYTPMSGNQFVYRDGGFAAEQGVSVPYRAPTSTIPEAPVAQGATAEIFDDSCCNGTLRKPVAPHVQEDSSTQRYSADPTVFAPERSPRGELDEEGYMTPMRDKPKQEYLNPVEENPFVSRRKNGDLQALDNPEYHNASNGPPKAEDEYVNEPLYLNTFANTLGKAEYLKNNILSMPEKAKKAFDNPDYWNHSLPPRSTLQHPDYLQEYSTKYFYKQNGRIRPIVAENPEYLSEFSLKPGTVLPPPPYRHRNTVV
RESULT TYPE: pIC50
Reminder that pIC50 means the negative base-10 logarithm of the concentration expressed in mol/L.

In plain terms, COc1cc(N2CCC(N3CCN(CC4CCN(c5ccc6c(c5)CN(C5CCC(=O)NC5=O)C6=O)CC4)CC3)CC2)ccc1Nc1ncc(Cl)c(Nc2ccccc2P(C)(C)=O)n1 (stereo not shown) [9o] has a documented pIC50 of 7.57

---

target: PTK2B (Homo sapiens)
Sequence (Q14289 whole entry, species assumed): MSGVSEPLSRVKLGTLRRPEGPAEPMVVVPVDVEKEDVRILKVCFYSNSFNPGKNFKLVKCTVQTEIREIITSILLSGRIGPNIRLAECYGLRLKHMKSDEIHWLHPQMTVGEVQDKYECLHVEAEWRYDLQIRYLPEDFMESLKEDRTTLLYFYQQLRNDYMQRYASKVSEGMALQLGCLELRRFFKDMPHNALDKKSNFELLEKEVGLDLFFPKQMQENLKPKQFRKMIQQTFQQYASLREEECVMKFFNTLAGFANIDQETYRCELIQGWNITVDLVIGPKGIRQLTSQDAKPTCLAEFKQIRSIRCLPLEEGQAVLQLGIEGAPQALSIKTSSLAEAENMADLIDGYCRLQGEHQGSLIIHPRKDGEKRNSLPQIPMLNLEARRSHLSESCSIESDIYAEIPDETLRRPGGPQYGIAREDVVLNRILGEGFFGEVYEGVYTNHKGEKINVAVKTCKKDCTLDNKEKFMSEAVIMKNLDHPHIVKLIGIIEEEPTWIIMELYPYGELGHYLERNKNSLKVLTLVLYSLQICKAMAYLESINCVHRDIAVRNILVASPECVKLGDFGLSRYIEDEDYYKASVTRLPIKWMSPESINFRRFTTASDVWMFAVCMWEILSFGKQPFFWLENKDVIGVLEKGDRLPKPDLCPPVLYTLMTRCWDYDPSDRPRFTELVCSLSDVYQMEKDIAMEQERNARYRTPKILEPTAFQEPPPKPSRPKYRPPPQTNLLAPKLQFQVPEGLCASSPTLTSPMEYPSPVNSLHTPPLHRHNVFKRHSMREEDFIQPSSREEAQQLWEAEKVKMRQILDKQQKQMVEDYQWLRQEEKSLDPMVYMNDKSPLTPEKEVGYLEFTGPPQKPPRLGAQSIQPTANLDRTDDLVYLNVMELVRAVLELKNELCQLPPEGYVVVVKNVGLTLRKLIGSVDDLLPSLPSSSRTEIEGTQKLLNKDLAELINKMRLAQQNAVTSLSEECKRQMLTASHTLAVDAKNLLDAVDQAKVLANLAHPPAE
RESULT TYPE: IC50 (nM)
Lab book: enter the figure in nM, no units written.

IC50 of COc1cc(N2CCC(N3CCN(CC4CCN(c5ccc6c(c5)CN(C5CCC(=O)NC5=O)C6=O)CC4)CC3)CC2)ccc1Nc1ncc(Cl)c(Nc2ccccc2P(C)(C)=O)n1 (stereo not shown) [9o] , assay on PTK2B (Homo sapiens), is 34

---

molecular target: ALK (Homo sapiens)
RESULT TYPE: IC50 (pM)
Lab book: enter the figure in pM, no units written.

In plain terms, COc1cc(N2CCC(N3CCN(CC4CCN(c5ccc6c(c5)CN(C5CCC(=O)NC5=O)C6=O)CC4)CC3)CC2)ccc1Nc1ncc(Cl)c(Nc2ccccc2P(C)(C)=O)n1 (stereo not shown) [9o] has a documented IC50 of 900

---

test system: ROS1; assay: ROS1 degradation in Ba/F3 cells (WES immunoblotting); assay type: cell-based; conditions: concentration needed to reduce ROS1 protein by 50%, Ba/F3 cells
RESULT TYPE: DC50 (nM)

Consider the reported DC50 for these molecules:
>>> value_reported("COc1cc(N2CCN(CC3CN(c4ccc5c(c4)C(=O)N(C4CCC(=O)NC4=O)C5=O)C3)CC2)ccc1Nc1ncc(Cl)c(Nc2ccccc2P(C)(C)=O)n1 (stereo not shown)")
10
>>> value_reported("C[C@@H](Oc1cc(-c2cnn(C3CCN(CC4CCN(c5cccc6c5C(=O)N(C5CCC(=O)NC5=O)C6=O)CC4)CC3)c2)cnc1N)c1c(Cl)ccc(F)c1Cl (stereo partly shown)")
368
>>> value_reported("COc1cc(N2CCC(N3CCN(CC4CN(c5ccc6c(c5)CN(C5CCC(=O)NC5=O)C6=O)C4)CC3)CC2)ccc1Nc1ncc(Cl)c(Nc2ccccc2P(C)(C)=O)n1 (stereo not shown)")
20

A = COc1cc(N2CCC(N3CCN(CC4CN(c5ccc6c(c5)C(=O)N(C5CCC(=O)NC5=O)C6=O)C4)CC3)CC2)ccc1Nc1ncc(Cl)c(Nc2ccccc2P(C)(C)=O)n1 (stereo not shown)
B = COc1cc(C2CCN(C3CCN(CC4CCN(c5ccc6c(c5)C(=O)N(C5CCC(=O)NC5=O)C6=O)CC4)CC3)CC2)ccc1Nc1ncc(Cl)c(Nc2ccccc2P(C)(C)=O)n1 (stereo not shown)
Pick the one with the larger DC50: A vs B Please indicate the selected item by its label.
B

---

molecular target: ROS1 (G2101C) (Homo sapiens, UniProt P08922, G2101C); assay: Kinase assay; details: average of duplicate measurements
Sequence (P08922 28-2347 G2101C): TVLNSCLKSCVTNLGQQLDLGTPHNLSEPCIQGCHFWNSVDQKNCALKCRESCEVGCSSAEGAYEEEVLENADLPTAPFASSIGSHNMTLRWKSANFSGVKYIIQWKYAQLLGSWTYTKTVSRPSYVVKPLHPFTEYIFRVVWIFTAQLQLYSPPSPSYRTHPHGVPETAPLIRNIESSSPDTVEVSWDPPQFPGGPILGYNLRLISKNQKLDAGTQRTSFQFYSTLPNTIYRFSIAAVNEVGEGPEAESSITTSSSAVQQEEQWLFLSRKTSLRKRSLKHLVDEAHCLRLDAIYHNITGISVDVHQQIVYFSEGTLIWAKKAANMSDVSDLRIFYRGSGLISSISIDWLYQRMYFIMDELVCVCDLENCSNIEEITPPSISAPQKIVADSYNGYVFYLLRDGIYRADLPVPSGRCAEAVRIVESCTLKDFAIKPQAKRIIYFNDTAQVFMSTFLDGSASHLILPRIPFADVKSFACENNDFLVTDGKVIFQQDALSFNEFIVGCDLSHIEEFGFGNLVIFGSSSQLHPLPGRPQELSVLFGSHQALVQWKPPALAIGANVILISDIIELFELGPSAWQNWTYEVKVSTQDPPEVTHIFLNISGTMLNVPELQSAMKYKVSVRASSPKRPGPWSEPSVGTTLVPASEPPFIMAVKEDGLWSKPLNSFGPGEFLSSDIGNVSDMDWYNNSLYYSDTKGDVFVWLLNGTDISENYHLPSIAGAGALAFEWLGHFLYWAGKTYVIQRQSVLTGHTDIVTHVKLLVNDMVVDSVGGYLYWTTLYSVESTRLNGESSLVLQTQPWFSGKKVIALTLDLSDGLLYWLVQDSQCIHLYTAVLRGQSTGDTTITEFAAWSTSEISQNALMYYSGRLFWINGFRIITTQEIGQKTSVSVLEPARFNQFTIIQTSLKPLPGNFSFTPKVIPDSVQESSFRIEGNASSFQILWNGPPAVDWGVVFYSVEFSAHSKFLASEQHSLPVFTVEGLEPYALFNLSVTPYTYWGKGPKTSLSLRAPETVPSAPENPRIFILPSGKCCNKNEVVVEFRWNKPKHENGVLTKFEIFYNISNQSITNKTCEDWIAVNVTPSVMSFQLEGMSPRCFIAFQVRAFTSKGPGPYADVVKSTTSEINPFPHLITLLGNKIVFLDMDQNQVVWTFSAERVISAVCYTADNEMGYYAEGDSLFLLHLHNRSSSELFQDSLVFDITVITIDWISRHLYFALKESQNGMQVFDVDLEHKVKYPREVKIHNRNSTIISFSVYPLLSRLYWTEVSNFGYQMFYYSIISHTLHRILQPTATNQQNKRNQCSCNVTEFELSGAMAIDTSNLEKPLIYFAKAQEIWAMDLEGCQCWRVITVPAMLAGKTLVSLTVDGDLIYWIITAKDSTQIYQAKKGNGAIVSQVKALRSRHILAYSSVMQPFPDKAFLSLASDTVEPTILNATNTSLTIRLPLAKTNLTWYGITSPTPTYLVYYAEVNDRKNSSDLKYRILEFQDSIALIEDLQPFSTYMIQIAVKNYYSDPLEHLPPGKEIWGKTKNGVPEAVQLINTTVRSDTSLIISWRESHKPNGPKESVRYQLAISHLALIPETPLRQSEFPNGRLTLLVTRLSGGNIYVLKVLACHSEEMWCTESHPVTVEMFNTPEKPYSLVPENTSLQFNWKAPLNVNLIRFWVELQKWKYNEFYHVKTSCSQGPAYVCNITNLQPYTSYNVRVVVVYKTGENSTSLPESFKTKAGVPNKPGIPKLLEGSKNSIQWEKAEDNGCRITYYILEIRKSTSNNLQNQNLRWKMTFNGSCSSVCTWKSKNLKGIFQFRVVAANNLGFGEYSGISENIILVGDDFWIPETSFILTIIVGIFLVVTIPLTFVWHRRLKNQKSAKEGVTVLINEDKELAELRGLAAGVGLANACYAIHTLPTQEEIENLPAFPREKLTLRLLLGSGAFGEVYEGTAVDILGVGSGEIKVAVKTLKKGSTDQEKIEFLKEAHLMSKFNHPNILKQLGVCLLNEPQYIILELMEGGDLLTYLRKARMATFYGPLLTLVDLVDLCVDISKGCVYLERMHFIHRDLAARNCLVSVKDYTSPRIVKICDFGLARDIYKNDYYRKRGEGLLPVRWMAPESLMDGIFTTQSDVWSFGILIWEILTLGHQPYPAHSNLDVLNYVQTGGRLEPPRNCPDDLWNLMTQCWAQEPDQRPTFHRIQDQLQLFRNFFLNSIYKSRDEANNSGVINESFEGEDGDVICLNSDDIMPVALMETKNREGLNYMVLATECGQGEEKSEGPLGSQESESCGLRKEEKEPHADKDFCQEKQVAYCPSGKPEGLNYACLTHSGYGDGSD
RESULT TYPE: pIC50
Reminder that pIC50 means the negative base-10 logarithm of the concentration expressed in mol/L.

pIC50 of COc1cc(N2CCC(N3CCN(CC4CCN(c5ccc6c(c5)CN(C5CCC(=O)NC5=O)C6=O)CC4)CC3)CC2)ccc1Nc1ncc(Cl)c(Nc2ccccc2P(C)(C)=O)n1 (stereo not shown) , assay on ROS1 (G2101C) (Homo sapiens, UniProt P08922, G2101C), is 7.08

---

system: ROS1; assay: ROS1 degradation in Ba/F3 cells (WES immunoblotting); format: cell-based; conditions: concentration needed to reduce ROS1 protein by 50%, Ba/F3 cells
RESULT TYPE: DC50 (nM)

Consider the reported DC50 for these compounds:
>>> value_reported("Cc1cc(Nc2ncc(Cl)c(Nc3ccccc3S(=O)(=O)C(C)C)n2)c(OC(C)C)cc1C1CCN(C2CCN(CCCNc3ccc4c(c3)C(=O)N(C3CCC(=O)NC3=O)C4=O)CC2)CC1 (centres unmarked) [8l]")
452
>>> value_reported("Cc1cc(Nc2ncc(Cl)c(Nc3ccccc3S(=O)(=O)C(C)C)n2)c(OC(C)C)cc1C1CCN(C2CCN(c3ccc4c(c3)C(=O)N(C3CCC(=O)NC3=O)C4=O)CC2)CC1 (centres unmarked) [8j]")
41
>>> value_reported("C[C@@H](Oc1cc(-c2cnn(C3CCN(c4ccc5c(c4)C(=O)N(C4CCC(=O)NC4=O)C5=O)CC3)c2)cnc1N)c1c(Cl)ccc(F)c1Cl (some centres unmarked) [7e]")
203

a = Cc1cc(Nc2ncc(Cl)c(Nc3ccccc3S(=O)(=O)C(C)C)n2)c(OC(C)C)cc1C1CCN(C2CCN(C3CN(c4cccc5c4C(=O)N(C4CCC(=O)NC4=O)C5=O)C3)CC2)CC1 (centres unmarked) [8f]
b = Cc1cc(Nc2ncc(Cl)c(Nc3ccccc3S(=O)(=O)C(C)C)n2)c(OC(C)C)cc1C1CCN(C2CCN(C3CCN(c4ccc5c(c4)C(=O)N(C4CCC(=O)NC4=O)C5=O)CC3)CC2)CC1 (centres unmarked) [8s]
Input pair: a , b . Output: entry with lower DC50. Please indicate the selected item by its label.
b
